Experiment: Pharmacokinetic drug-drug interaction study, single dose with multiple-dose partner, healthy subjects (Example 6)
Type: in vivo, human
Settings: human, plasma, 20 mg, Compound 1 AUCinf, Mean (% CV), Group 1, human, single-dose Compound 1 20 mg alone
Property: AUC(0-inf)
# do not omit the unit; it follows the number

(Q) Which measured AUC(0-inf) value corresponds to Fc1ccccc1-c1nc2ccn(Cc3ccc(-c4ccc(C(F)(F)F)cc4C(F)(F)F)nn3)cc-2n1 [Compound 1] ?
(A) 13400 ng·h/mL

###

Experiment: Multiple-dose pharmacokinetic interaction study in healthy subjects (Example 5)
Assay type: in vivo, human
Settings: plasma; human, oral, Compound 2 (75 mg BID) alone, Day 7; read-out: Compound 2 Ctau, Mean (% CV)
Property: concentration at 12 h

(Q) Which measured concentration at 12 h value corresponds to COc1ccc2c(O[C@@H]3C[C@H]4C(=O)N[C@]5(P(=O)(O)Cc6c(F)cccc6F)C[C@H]5CCCCCCC[C@H](NC(=O)OC5CCCC5)C(=O)N4C3)cc(-c3csc(NC(C)C)n3)nc2c1Cl [Compound 2] ?
(A) 1550 ng/mL

###

Assay: Multiple-dose pharmacokinetic interaction study in healthy subjects (Example 5)
Format: in vivo, human
Settings: plasma; human, oral, Compound 2 (75 mg BID) alone, Day 7; read-out: Compound 2 Cmax, Mean (% CV)
Property: Cmax (ng/mL)
Expressed in ng/mL, but write only the number.

(Q) Which measured Cmax value corresponds to `COc1ccc2c(O[C@@H]3C[C@H]4C(=O)N[C@]5(P(=O)(O)Cc6c(F)cccc6F)C[C@H]5CCCCCCC[C@H](NC(=O)OC5CCCC5)C(=O)N4C3)cc(-c3csc(NC(C)C)n3)nc2c1Cl` ?
(A) 4500

###

Assay: Pharmacokinetic drug-drug interaction study, single dose with multiple-dose partner, healthy subjects (Example 6)
Assay type: in vivo, human
Conditions: human, plasma, Compound 1 T1/2, Median (min, max), Group 2, human, single-dose Compound 1 40 mg + multiple-dose Compound 2 150 mg BID
Property: half-life (h)
Expressed in h, but write only the number.

(Q) Which measured half-life value corresponds to Fc1ccccc1-c1nc2ccn(Cc3ccc(-c4ccc(C(F)(F)F)cc4C(F)(F)F)nn3)cc-2n1 [Compound 1] ?
(A) 39.3

###

Test: Pharmacokinetic drug-drug interaction study, single dose with multiple-dose partner, healthy subjects (Example 6)
Format: in vivo, human
Settings: human, plasma, 20 mg, Compound 1 AUC0-last, Mean (% CV), Group 1, human, single-dose Compound 1 20 mg alone
Property: AUC(0-t) (ng·h/mL)
Expressed in ng·h/mL, but write only the number.

(Q) Which measured AUC(0-t) value corresponds to `Fc1ccccc1-c1nc2ccn(Cc3ccc(-c4ccc(C(F)(F)F)cc4C(F)(F)F)nn3)cc-2n1` ?
(A) 12800

###

Experiment: Pharmacokinetic drug-drug interaction study, single dose with multiple-dose partner, healthy subjects (Example 6)
Format: in vivo, human
Settings: human, plasma, 75 mg, Group 3, human, Compound 2 75 mg SD alone; read-out: Compound 2 Cmax, Mean (% CV)
Property: Cmax (ng/mL)
Expressed in ng/mL, but write only the number.

(Q) Which measured Cmax value corresponds to `COc1ccc2c(O[C@@H]3C[C@H]4C(=O)N[C@]5(P(=O)(O)Cc6c(F)cccc6F)C[C@H]5CCCCCCC[C@H](NC(=O)OC5CCCC5)C(=O)N4C3)cc(-c3csc(NC(C)C)n3)nc2c1Cl` ?
(A) 1040

###

Experiment: Pharmacokinetic drug-drug interaction study, single dose with multiple-dose partner, healthy subjects (Example 6)
Assay type: in vivo, human
Settings: human, plasma, 20 mg, Compound 1 Cmax, Mean (% CV), Group 1, human, single-dose Compound 1 20 mg alone
Property: Cmax

(Q) Which measured Cmax value corresponds to Fc1ccccc1-c1nc2ccn(Cc3ccc(-c4ccc(C(F)(F)F)cc4C(F)(F)F)nn3)cc-2n1 [Compound 1] ?
(A) 940 ng/mL

###

Experiment: Pharmacokinetic drug-drug interaction study, single dose with multiple-dose partner, healthy subjects (Example 6)
Format: in vivo, human
Settings: human, plasma, Compound 1 AUC0-last, Mean (% CV), Group 2, human, single-dose Compound 1 40 mg + multiple-dose Compound 2 150 mg BID
Property: AUC(0-t) (ng·h/mL)
Expressed in ng·h/mL, but write only the number.

(Q) Which measured AUC(0-t) value corresponds to Fc1ccccc1-c1nc2ccn(Cc3ccc(-c4ccc(C(F)(F)F)cc4C(F)(F)F)nn3)cc-2n1 [Compound 1] ?
(A) 87500

###

Assay: Pharmacokinetic drug-drug interaction study, single dose with multiple-dose partner, healthy subjects (Example 6)
Type: in vivo, human
Conditions: human, plasma, Compound 1 T1/2, Median (min, max), Group 1, human, single-dose Compound 1 20 mg + multiple-dose Compound 2 150 mg BID
Protocol: In this study, healthy subjects were randomized into one of the following three treatment groups: […] Treatment Group 3 (N=20): […] Serial blood samples for analysis of plasma concentrations of Compound 2 were collected up to 72 hours post-morning dose on Days 1 and 10 to determine systemic drug exposure.
Property: half-life (h)
Expressed in h, but write only the number.

(Q) Which measured half-life value corresponds to `Fc1ccccc1-c1nc2ccn(Cc3ccc(-c4ccc(C(F)(F)F)cc4C(F)(F)F)nn3)cc-2n1` ?
(A) 35.8

###

Test: Pharmacokinetic drug-drug interaction study, single dose with multiple-dose partner, healthy subjects (Example 6)
Type: in vivo, human
Conditions: human, plasma, 40 mg, Compound 1 T1/2, Median (min, max), Group 2, human, single-dose Compound 1 40 mg alone
Property: half-life (h)
Expressed in h, but write only the number.

(Q) Which measured half-life value corresponds to `Fc1ccccc1-c1nc2ccn(Cc3ccc(-c4ccc(C(F)(F)F)cc4C(F)(F)F)nn3)cc-2n1` ?
(A) 19.2

###

Assay: Pharmacokinetic drug-drug interaction study, single dose with multiple-dose partner, healthy subjects (Example 6)
Format: in vivo, human
Conditions: human, plasma, Compound 1 Cmax, Mean (% CV), Group 1, human, single-dose Compound 1 20 mg + multiple-dose Compound 2 150 mg BID
Property: Cmax
# do not omit the unit; it follows the number

(Q) Which measured Cmax value corresponds to Fc1ccccc1-c1nc2ccn(Cc3ccc(-c4ccc(C(F)(F)F)cc4C(F)(F)F)nn3)cc-2n1 [Compound 1] ?
(A) 1140 ng/mL

###

Test: Multiple-dose pharmacokinetic interaction study in healthy subjects (Example 5)
Format: in vivo, human
Conditions: plasma; human, oral, Compound 2 (75 mg BID) alone, Day 7; read-out: Compound 2 AUCtau, Mean (% CV)
Property: AUC (µg·h/mL)
Expressed in µg·h/mL, but write only the number.

(Q) Which measured AUC value corresponds to `COc1ccc2c(O[C@@H]3C[C@H]4C(=O)N[C@]5(P(=O)(O)Cc6c(F)cccc6F)C[C@H]5CCCCCCC[C@H](NC(=O)OC5CCCC5)C(=O)N4C3)cc(-c3csc(NC(C)C)n3)nc2c1Cl` ?
(A) 35.3

###

Assay: Pharmacokinetic drug-drug interaction study, single dose with multiple-dose partner, healthy subjects (Example 6)
Type: in vivo, human
Details: human, plasma, Group 3, human, Compound 2 75 mg SD + Compound 1 40 mg BID; read-out: Compound 2 Cmax, Mean (% CV)
Property: Cmax (ng/mL)
Expressed in ng/mL, but write only the number.

(Q) Which measured Cmax value corresponds to COc1ccc2c(O[C@@H]3C[C@H]4C(=O)N[C@]5(P(=O)(O)Cc6c(F)cccc6F)C[C@H]5CCCCCCC[C@H](NC(=O)OC5CCCC5)C(=O)N4C3)cc(-c3csc(NC(C)C)n3)nc2c1Cl [Compound 2] ?
(A) 830

###

Test: Pharmacokinetic drug-drug interaction study, single dose with multiple-dose partner, healthy subjects (Example 6)
Assay type: in vivo, human
Settings: human, plasma, Group 3, human, Compound 2 75 mg SD + Compound 1 40 mg BID; read-out: Compound 2 T1/2, Median (min, max) (converted)
Property: half-life (h)
Expressed in h, but write only the number.

(Q) Which measured half-life value corresponds to COc1ccc2c(O[C@@H]3C[C@H]4C(=O)N[C@]5(P(=O)(O)Cc6c(F)cccc6F)C[C@H]5CCCCCCC[C@H](NC(=O)OC5CCCC5)C(=O)N4C3)cc(-c3csc(NC(C)C)n3)nc2c1Cl [Compound 2] ?
(A) 6.06
